- Organism: Rattus norvegicus
- testDescription: Open TG-GATES - Regimen: Daily Repeat
- Format: toxicity, organism-based, Sprague-Dawley
- Design: regimen Daily Repeat, gender Male, age 6 weeks
- recordedConditions: in vivo, po, 0 mg/kg, […], tissue Kidney, route gavage, dose level Control, time 14 day
measurementName: KIDNEY_L

[
  {
    "compound": "C#C[C@]1(O)CC[C@H]2[C@@H]3CCc4cc(O)ccc4[C@H]3CC[C@@]21C [ETHINYL ESTRADIOL]",
    "measurementName": "KIDNEY_L",
    "reported": "1.3 g"
  }
]

Hello, I would appreciate it if you could give KIDNEY_L for each entry below.
1. CC(C)(S)[C@@H](N)C(=O)O [PENICILLAMINE]
2. CC(=N)S [THIOACETAMIDE]
3. CN1C(=O)OC(C)(C)C1=O [TRIMETHADIONE]
4. CCC(C)(C)C(=O)O[C@H]1C[C@@H](C)C=C2C=C[C@H](C)[C@H](CC[C@@H]3C[C@@H](O)CC(=O)O3)[C@H]21 [SIMVASTATIN]
5. Nc1nc(N)c2nc(-c3ccccc3)c(N)nc2n1
6. CC(C)C(=O)Nc1ccc([N+](=O)[O-])c(C(F)(F)F)c1 [FLUTAMIDE]
7. CCc1oc2ccccc2c1C(=O)c1cc(I)c(O)c(I)c1 [BENZIODARONE]

[reply]
1: 1.3 g; 2: 1.2 g; 3: 1.2 g; 4: 1.2 g; 5: 1.2 g; 6: 1.2 g; 7: 1.3 g

###

I'd be grateful if you could share measured WBC for these entries.
- Species on record: Rattus norvegicus
- testDescription: Open TG-GATES - Regimen: Daily Repeat
- Assay type: toxicity, organism-based, Sprague-Dawley
- Parameters: regimen Daily Repeat, gender Male, age 6 weeks
- recordedConditions: in vivo, po, 300 mg/kg, […], tissue Blood, route gavage, dose level Middle, time 7 day
Answers are plain numbers, in x10_2/uL.

Sample answers from the record:
[
  {
    "compound": "CCN1CCCC1CNC(=O)c1cc(S(N)(=O)=O)ccc1OC (centres undefined) [SULPIRIDE]",
    "reported": 113
  },
  {
    "compound": "O=C(N[C@H](CO)[C@H](O)c1ccc([N+](=O)[O-])cc1)C(Cl)Cl [CHLORAMPHENICOL]",
    "reported": 66.9
  },
  {
    "compound": "CC(C)(S)[C@@H](N)C(=O)O [PENICILLAMINE]",
    "reported": 96
  }
]

[ask] Please report the recorded WBC for O=C(O)c1cccnc1 [NIACIN] .
[reply] 104.1

###

- Species on record: Rattus norvegicus
- testDescription: Open TG-GATES - Regimen: Daily Repeat
- Format: toxicity, organism-based, Sprague-Dawley
- Parameters: regimen Daily Repeat, gender Male, age 6 weeks
- recordedConditions: in vivo, po, 0 mg/kg, […], tissue Plasma, route gavage, dose level Control, time 28 day
Could you please report measured CRE for the items listed next?
Give bare numbers, in mg/dL.

The examples below pair each entry with its known result.
[
  {
    "compound": "O=C(N[C@H](CO)[C@H](O)c1ccc([N+](=O)[O-])cc1)C(Cl)Cl [CHLORAMPHENICOL]",
    "unitSymbol": "mg/dL",
    "CRE": 0.2
  },
  {
    "compound": "CCc1oc2ccccc2c1C(=O)c1cc(I)c(O)c(I)c1 [BENZIODARONE]",
    "unitSymbol": "mg/dL",
    "CRE": 0.6
  }
]

Each compound below has a recorded value; state its CRE.
1. O=C(O)c1cccnc1 [NIACIN]
2. CC(C)C(=O)Nc1ccc([N+](=O)[O-])c(C(F)(F)F)c1 [FLUTAMIDE]
3. CC(=O)Oc1cc(C(C)C)c(OCCN(C)C)cc1C [MOXISYLYTE]

[reply]
1. 0.2
2. 0.5
3. 0.2
